System: Fibroblast
Test: Incucyte cell viability with human fibroblast; note: filed as whole numbers so only -1 and 0 and 1 occur
Type: toxicity, cell-based
Conditions: 18 h, 10 µM, compound concentration 10 uM, replicate number 1, timepoint 18 hours
measured-parameter: Growth Rate
Answers are plain numbers.

Field: example entries. Status: answers known.
1. Cc1ccccc1C(=O)Nc1ccc(C(=O)N2CCCC(O)c3cc(Cl)ccc32)c(C)c1 (configuration not stated) [TOLVAPTAN] ... 1
2. Cc1cc(C(C)(C)C)c(O)c(C)c1CC1=NCCN1.Cl [OXYMETAZOLINE HYDROCHLORIDE] ... 1
3. O[C@H]1CC[C@H](Nc2ncc3nc(Nc4c(F)cc(F)cc4F)n([C@H]4CCOC4)c3n2)CC1 [TANZISERTIB] ... 1
4. O=c1[nH]c2ccccc2n1C1CCN(Cc2ccc(-c3[nH]c4cc5ncnc5cc4nc3-c3ccccc3)cc2)CC1 ... 0
5. S=C=Nc1cccc(NC(=S)NCCCCNC(=S)Nc2cccc(N=C=S)c2)c1 ... 0
6. CN(C)C(=O)/C(C#N)=C/c1ccc(-c2nc3cnc4c(ccn4C)c3n2C2CCCCC2)o1 ... 0
7. COCCOc1nc(-c2ccc(Cl)nc2)nc2c1CN(C(=O)c1ncn3ccccc13)CC2 [THPP-1] ... 1
8. O=C(Nc1ccc(Oc2ccc(F)cc2)cc1)N1CCc2ncccc2[C@H]1c1ccc(F)cc1 [BAY-897] ... 1
9. CCCOc1ccc([C@H]2[C@H](C(=O)O)[C@@H](c3ccc4c(c3)OCO4)CN2CC(=O)Nc2c(CC)cccc2CC)cc1 [A-192621] ... 1
10. Cc1cc([C@@H](C)Nc2ccccc2C(=O)O)c2nc(N3CCOCC3)cc(=O)n2c1 [AZD-6482] ... 0

Value sought for every listed compound: Growth Rate.
1. CN1CCc2c(c3ccccc3n2Cc2ccc(C(=O)NO)cc2)C1 [TUBASTATIN A]
2. CNC(=O)Nc1ccc(-c2nc(N3CC4CCC(C3)O4)c3cnn(C4CCC5(CC4)OCCO5)c3n2)cc1

Result:
1. 1
2. 0

###

Would you mind telling me the reported Population Pyknosed Nuclei (%) of each entry?
System: U2OS
Assay: Multiplex assay against U2OS
Assay type: toxicity, cell-based
Settings: human, 24 h, 1 µM, compound concentration 1 uM, replicate 1
Give bare numbers, in %.

1. CC(C)NC(=O)N1CC[C@H](NC2=Nc3cc(F)ccc3N(CC(F)F)c3ccc(Cl)cc32)C1 ... 12
2. O=C(c1cc2c(cc1F)OC(c1ccc(F)cc1)(c1ccc(Cl)cc1Cl)O2)N1CCOCC1 (stereo not drawn) ... 14
3. CCCSc1nc(N[C@@H]2C[C@H]2c2ccc(F)c(F)c2)c2nnn([C@@H]3C[C@H](OCCO)[C@@H](O)[C@H]3O)c2n1 [TICAGRELOR] ... 7

Value sought for every listed molecule: Population Pyknosed Nuclei (%).
1. C=CC(=O)Nc1cccc(Sc2nc(Nc3ccc(N4CCN(C)CC4)cc3)ncc2Cl)c1
2. COC(=O)C1=C(C)NC(C)=C(C(=O)OCCCN2CCC(c3ccccc3)(c3ccccc3)CC2)[C@H]1c1cccc([N+](=O)[O-])c1 [NIGULDIPINE]
3. Cl.O=C(O)c1cc(-c2ccc(C3CCNCC3)cc2)c2ccc(-c3ccc(C(F)(F)F)cc3)cc2c1
4. O=c1[nH]c2ccccc2n1C1CCN(Cc2ccc(-c3[nH]c4cc5ncnc5cc4nc3-c3ccccc3)cc2)CC1
5. COc1ccccc1CN[C@H]1C2CCN(CC2)[C@H]1C(c1ccccc1)c1ccccc1 [CP-96345]
6. Cc1nc(N2CC[C@H](O)C2)ncc1-c1cc(C(F)(F)F)cc2[nH]ncc12
7. CN1CCN(Cc2ccc(Nc3ncc(Cl)c(Nc4ccccc4S(=O)(=O)N(C)C)n3)cc2)CC1 [DUBERMATINIB]

Result:
1: 50; 2: 30; 3: 6; 4: 9; 5: 7; 6: 4; 7: 25
